# maps each entry to its IC50
biological target: BCL9/β-catenin (Homo sapiens); experiment: FP (BCL-9 avidity) fluorescence polarization competition assay with beta-catenin and FAP-Bcl9 tracer; type: binding; conditions: Table 1.3, compounds 15-20; read-out: BCL-9 avidity FP IC50
Sequence (P35222 whole entry): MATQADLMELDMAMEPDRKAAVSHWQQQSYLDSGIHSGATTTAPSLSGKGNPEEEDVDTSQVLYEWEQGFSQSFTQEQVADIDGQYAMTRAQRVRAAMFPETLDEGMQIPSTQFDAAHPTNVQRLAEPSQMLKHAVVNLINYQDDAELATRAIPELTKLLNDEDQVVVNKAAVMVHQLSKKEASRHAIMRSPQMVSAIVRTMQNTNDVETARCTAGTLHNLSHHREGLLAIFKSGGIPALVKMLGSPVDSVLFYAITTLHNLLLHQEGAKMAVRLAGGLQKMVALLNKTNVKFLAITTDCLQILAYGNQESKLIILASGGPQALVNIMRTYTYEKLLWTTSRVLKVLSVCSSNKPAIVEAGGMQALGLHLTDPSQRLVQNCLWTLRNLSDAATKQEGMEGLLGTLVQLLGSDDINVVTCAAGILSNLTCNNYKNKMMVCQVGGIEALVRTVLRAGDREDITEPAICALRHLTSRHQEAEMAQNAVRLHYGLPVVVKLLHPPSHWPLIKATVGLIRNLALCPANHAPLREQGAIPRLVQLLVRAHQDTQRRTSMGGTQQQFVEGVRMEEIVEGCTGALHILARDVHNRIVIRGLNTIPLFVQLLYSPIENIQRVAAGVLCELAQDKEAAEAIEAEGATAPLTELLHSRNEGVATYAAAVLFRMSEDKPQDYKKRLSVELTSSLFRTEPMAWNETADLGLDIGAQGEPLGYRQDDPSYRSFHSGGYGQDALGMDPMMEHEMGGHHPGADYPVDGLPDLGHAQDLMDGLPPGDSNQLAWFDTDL

>  <COMPOUND>
CC(C)(Nc1cccc(N2CCC[C@@H](C(=O)N(Cc3ccc(-c4cn[nH]c4)cc3)C3CC3)C2)c1)C(=O)N1CCNCC1 [Compound 15]

>  <IC50>
10 to 20 µM

$$$$
>  <COMPOUND>
CC(C)(Oc1cccc(N2CCC[C@@H](NC(=O)N(Cc3ccc(-c4cn[nH]c4)cc3)C3CC3)C2)c1)C(=O)NCCN [Compound 18]

>  <IC50>
10 to 20 µM

$$$$
>  <COMPOUND>
CN(c1cccc(N2CCC[C@@H](C(=O)N(Cc3ccc(-c4cn[nH]c4)cc3)C3CC3)C2)c1)C(C)(C)C(=O)N1CCNCC1 [Compound 16]

>  <IC50>
10 to 20 µM

$$$$
